# Procedure text: Binding affinity to Pseudomonas aeruginosa lectin LecB after 1 hr by enzyme-linked lectin assay
pIC50: −log10 of the molar value.
Observable: pIC50

Smiles string	Observable	Readout value
C[C@H](O)[C@@H](O)[C@@H](O)[C@H](O)C=O	pIC50	4.96
